biological target: human CD33 I199A (human, UniProt P20138 18-364); experiment: alanine scan, flow cytometry, HEK293-T;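 note: antibody binding to each alanine-substituted CD33 mutant expressed transiently in HEK293-T, read as fluorescence minus background, mean of duplicates, relative to wild-type CD33 set as 100%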
Sequence (P20138 18-364 I199A limits assumed): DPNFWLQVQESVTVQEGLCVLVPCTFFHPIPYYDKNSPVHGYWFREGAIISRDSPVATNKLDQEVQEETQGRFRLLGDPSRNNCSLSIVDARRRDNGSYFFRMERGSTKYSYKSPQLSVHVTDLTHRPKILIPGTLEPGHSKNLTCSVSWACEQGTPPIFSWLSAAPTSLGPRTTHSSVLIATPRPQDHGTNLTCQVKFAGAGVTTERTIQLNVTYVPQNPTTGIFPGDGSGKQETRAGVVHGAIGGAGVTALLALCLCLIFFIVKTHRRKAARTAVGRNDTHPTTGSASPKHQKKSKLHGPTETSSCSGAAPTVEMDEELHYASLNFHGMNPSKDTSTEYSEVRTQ
MEASUREMENT_LABEL: Mean % WT Binding (%)
Give bare numbers, in %.

Worked examples, 3 binders total:
| BINDER | VALUE |
| --- | --- |
| Refmab #2 (antibody, V domains shown, In the alanine scan antibodies were used as IgG or Fab) VH: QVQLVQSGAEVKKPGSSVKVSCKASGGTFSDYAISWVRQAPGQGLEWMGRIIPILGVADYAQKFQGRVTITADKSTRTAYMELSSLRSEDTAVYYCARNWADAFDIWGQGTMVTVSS VL: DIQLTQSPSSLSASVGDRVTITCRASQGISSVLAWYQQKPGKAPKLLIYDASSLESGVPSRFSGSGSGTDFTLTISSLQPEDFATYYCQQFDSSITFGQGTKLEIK | 125 |
| Refmab #1 (antibody, V domains shown, In the alanine scan antibodies were used as IgG or Fab; also called hP67.6) VH: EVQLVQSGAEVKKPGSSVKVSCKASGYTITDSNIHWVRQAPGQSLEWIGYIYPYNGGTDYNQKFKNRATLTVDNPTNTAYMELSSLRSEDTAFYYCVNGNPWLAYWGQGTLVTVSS VL: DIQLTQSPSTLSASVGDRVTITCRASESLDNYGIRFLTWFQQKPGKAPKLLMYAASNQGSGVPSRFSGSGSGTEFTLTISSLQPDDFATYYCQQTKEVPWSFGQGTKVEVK | 98.5 |
| Refmab #4 (antibody, V domains shown, In the alanine scan antibodies were used as IgG or Fab) VH: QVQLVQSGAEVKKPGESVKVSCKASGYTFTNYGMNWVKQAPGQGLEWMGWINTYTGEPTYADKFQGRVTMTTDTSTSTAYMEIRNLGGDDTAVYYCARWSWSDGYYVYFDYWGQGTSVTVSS VL: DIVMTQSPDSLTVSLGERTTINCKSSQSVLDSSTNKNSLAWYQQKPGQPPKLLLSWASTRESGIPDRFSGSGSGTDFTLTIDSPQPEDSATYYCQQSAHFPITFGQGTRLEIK | 114 |

Proceeding to the next binder to report its Mean % WT Binding.
Sure, the documented Mean % WT Binding for Refmab #3 (antibody, V domains shown, In the alanine scan antibodies were used as IgG or Fab) VH: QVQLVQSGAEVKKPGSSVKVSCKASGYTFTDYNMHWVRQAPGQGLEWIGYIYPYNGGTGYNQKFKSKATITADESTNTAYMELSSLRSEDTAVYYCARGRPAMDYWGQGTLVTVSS VL: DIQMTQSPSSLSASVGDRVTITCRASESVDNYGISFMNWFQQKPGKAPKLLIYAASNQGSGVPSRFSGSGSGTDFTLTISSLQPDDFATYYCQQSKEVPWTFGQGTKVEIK is 112
